Assayed target: HsCdk9/Cyc E (Homo sapiens, UniProt P50750)
Sequence (P50750 whole entry): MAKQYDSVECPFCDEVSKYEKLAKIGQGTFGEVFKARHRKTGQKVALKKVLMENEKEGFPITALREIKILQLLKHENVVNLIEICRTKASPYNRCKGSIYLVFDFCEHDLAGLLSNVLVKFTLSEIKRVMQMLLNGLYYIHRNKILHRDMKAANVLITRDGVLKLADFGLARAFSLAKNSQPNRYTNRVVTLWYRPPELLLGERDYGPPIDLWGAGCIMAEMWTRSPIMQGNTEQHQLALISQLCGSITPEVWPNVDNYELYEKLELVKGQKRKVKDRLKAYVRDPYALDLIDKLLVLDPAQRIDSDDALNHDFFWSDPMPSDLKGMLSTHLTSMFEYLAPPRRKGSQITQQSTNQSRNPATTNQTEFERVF
Sequence (O60563 whole entry partner): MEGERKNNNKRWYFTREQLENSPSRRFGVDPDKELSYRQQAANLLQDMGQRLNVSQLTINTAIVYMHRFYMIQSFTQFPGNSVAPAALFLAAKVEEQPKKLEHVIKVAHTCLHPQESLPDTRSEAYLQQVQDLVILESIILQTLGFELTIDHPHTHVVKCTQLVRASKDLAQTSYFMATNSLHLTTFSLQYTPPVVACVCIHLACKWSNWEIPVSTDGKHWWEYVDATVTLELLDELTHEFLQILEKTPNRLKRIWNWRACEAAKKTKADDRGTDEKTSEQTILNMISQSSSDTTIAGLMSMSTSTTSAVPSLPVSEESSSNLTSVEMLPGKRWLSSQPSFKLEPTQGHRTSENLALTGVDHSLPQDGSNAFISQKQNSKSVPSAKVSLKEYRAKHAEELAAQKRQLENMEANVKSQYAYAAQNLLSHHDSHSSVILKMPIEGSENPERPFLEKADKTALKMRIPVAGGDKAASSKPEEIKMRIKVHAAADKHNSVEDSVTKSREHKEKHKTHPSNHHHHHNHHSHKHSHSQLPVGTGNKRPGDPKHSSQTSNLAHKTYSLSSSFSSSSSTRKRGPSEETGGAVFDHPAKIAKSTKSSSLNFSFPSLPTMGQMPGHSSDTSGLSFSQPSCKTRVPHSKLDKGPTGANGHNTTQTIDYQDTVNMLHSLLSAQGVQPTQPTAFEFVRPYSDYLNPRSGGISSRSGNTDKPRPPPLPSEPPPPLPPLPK
Assay text: ADP-Glo kinase assay
Format: biochemical, Homo sapiens (Hs)
Experimental context: mean n = 2, % of maximum activity of DMSO control, read-out: % Residual activity at 1 μM CDK9
Readout type: remaining activity at 1 µM (%)
Numbers only, in %.

# count of solved cases: 2
{"columns": ["Molecule", "remaining activity at 1 µM (%)"],
 "data": [
  ["COc1ccc2[nH]c3c(=O)[nH]c4ccccc4c3c2c1 [Compound 49]", 40],
  ["COc1ccc2c(c1)c1c3cc(C(F)(F)F)ccc3[nH]c(=O)c1n2C [Compound 63]", 45]
]}

// next entry
Exercise: So what remaining activity at 1 µM did COc1ccc2[nH]c3c(=O)[nH]c4ccc(O)cc4c3c2c1 [Compound 55] get with HsCdk9/Cyc E (Homo sapiens, UniProt P50750)?
Key: 17
